Attribute: GFP response vs DMSO
PROTOCOL_SUMMARY: TOR pathway LAP4-GFP level changes – S. cerevisiae, multiplex flow cytometry, MLPCN library, primary screen (AID 2023)
RUN_PARAMETERS: 3 h, at 10 µM, stronger effect = higher value, median GFP as percent of DMSO wells
In all, about 320,000 compounds went through this assay and about 1,100 (0.34%) were called active. Shown is part of a subset that was picked to be rich in actives.

COMPOUND	GFP response vs DMSO / %
CN(c1ccccc1)S(=O)(=O)c1cc(C(=O)N2CCN(c3ncccn3)CC2)ccc1Cl	91.2
CCCCNc1c(-c2ccc(OC)c(Sc3ccc(OC)cc3)c2)nc2ccc(Cl)cn12	141
CC(C)CC1(C)NC(=O)N(CC(=O)Nc2ccc3c(c2)OCCO3)C1=O (stereo unspecified)	95.9
CCc1c(C)c2ccc(OC3CCCCC3=O)cc2oc1=O (stereo unspecified)	99.3
COc1ccc(CN2CN(C(C)C)CSC2=S)cc1	162
Cc1ccc(C(=O)CSc2ccccc2C(=O)O)cc1	104
CCCCCCSc1ccc(-c2nc3ccc(Cl)cn3c2NCc2ccccc2)cc1	99.4
COc1ccc(CN2CN(C3CCCC3)CSC2=S)cc1	98.2
CCCCNc1c(-c2cccc(Sc3ccc(OC)cc3)c2)nc2ccccn12	151
Nc1c(C(=O)c2cccs2)sc2nsc(SCCN3CCCCC3)c12	203
O=C(CSc1ncnc2sccc12)N1CCN(C(=O)c2cccs2)CC1	107

====

PROTOCOL_SUMMARY: TOR pathway LAP4-GFP level changes – S. cerevisiae, multiplex flow cytometry, MLPCN library, primary screen (AID 2023)
RUN_PARAMETERS: 3 h, at 10 µM, median GFP as percent of DMSO wells
Out of some 320,000 compounds screened, about 1,100 (0.34%) were called active.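 The calls were made as follows: active = GFP response vs DMSO above a set limit, about the screen mean plus 3 SD (cut at about 150% in these data); inconclusive = under 70 cell events counted for the yeast strain; inactive = the rest.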 Many of the other results were omitted from the sample, so actives are more common in it than they were.
Outcome codes: Y for active, N for inactive

MOLECULE	QUALITATIVE_LABEL
O=[N+]([O-])c1ccc(F)cc1Oc1nc(-c2cccnc2)nc2ccccc12	N
CC(C)(C)OC(=O)C[C@@H]1C/C=C\C[C@@H](CC(=O)N[C@H](CO)Cc2ccccc2)C(=O)NC[C@@H](c2ccccc2)OC1=O	N
COc1ccc(C2(c3ccc(OC)cc3)NC(=O)N(CC(=O)Nc3cc(C)on3)C2=O)cc1	N
CCn1c(=S)[nH]c2cc(S(=O)(=O)N3CCOCC3)ccc21	N
COc1ccccc1CNC(=O)CNC(=O)c1cn(-c2ccccc2OC)c(=O)c2ccccc12	N
CCn1c(SCCC(C)C)nnc1-c1c[nH]c2ccccc12	Y
O=C(Nc1cccc2ccccc12)c1onc2c1CCCC2	N
CCCCN1C(=O)c2ccc(C(=O)Nc3ccc(S(=O)(=O)N(C)C)cc3)cc2C1=O	N
CCCn1nc(C(=O)NNC(=O)CCOc2ccccc2OCC)c2ccccc2c1=O	Y
CCCn1nc(C(=O)NNC(=O)CSCC(=O)Nc2cc(C)on2)c2ccccc2c1=O	N
CC1=C/C(=N\OS(=O)(=O)c2ccccc2)C=CC1=O	Y
COc1cc(C(=S)N2CCOCC2)cc(OC)c1OC(=O)c1ccc([N+](=O)[O-])cc1[N+](=O)[O-]	N
Cc1ccc2cccc(S(=O)(=O)N3CCN(c4ccccc4F)CC3)c2n1	N
CCc1ccc(S(=O)(=O)N/N=C\c2ccc([N+](=O)[O-])o2)cc1	N
CN(C)c1nc(=Nc2cccc(Cl)c2)ss1	Y
CC(C)c1ccc(NC2CCCN(C(=O)c3ccncc3)C2)cc1 (configuration not stated)	N
O=C(COc1cccnc1[N+](=O)[O-])Nc1ccc(Cl)cc1F	Y
O=C(Nc1cccnc1)c1ccc(Cl)c([N+](=O)[O-])c1	N
COc1ccccc1N(CCOc1ccccc1)S(=O)(=O)c1ccccc1	N
CCCc1[nH]nc2c1C(c1ccc(Br)s1)C(C#N)=C(N)O2 (configuration not stated)	Y
C[C@H]1CC[C@]2(O[C@@H](CCO)C[C@@H](O)[C@@H]2O)O1	N
O=C(CCC1CCN(C(=O)c2cccc(Cl)c2F)CC1)Nc1ccccc1	N
C/C(N)=C(\C#N)C(=O)NCCc1ccccn1	N
COc1cc(OC)cc(C(=O)NCC(=O)OCc2csc(-c3ccccc3)n2)c1	N
O=C(CN1CCCSc2ccccc21)N1CCN(S(=O)(=O)c2cccc(F)c2)CC1	N
O=C(c1ccccc1)c1ccc(C(=O)N2CCN(c3ccccc3)CC2)cc1	N
CCCn1nc(C(=O)Nc2ccc3nc(C)sc3c2)c2ccccc2c1=O	N
O=C(c1ccc(N2CCOCC2)c([N+](=O)[O-])c1)N1CCN(c2ccccc2F)CC1	N
CC[C@@H](C)[C@@H]1CN([C@@H](C)CN2CCC[C@H]2CN2C(N)=NC[C@H]2C(C)C)C(=N)N1CCc1ccc(Cl)c(Cl)c1	N
O=C(/C=C/c1ccc(Cl)cc1Cl)c1cccnc1	N
O=C(O[C@@H]1[C@H](Cc2ccccc2)NS(=O)(=O)[C@H]2C[C@@H]3C=C[C@]12O3)c1ccccc1Br	N
CCn1c(/C=C/c2ccc([N+](=O)[O-])o2)nc2ccccc2c1=O	Y
CCc1noc(C)c1C(=O)N1CCCSC1=Nc1ccccc1OC	N
O=C(COC(=O)c1cccnc1Cl)NC12CC3CC(CC(C3)C1)C2	N
Cc1cccnc1NC(=O)c1cccc(S(=O)(=O)N2CCN(c3ccc(F)cc3)CC2)c1	N
CCC(C)Sc1nnc(-c2c[nH]c3ccccc23)n1CCOC (configuration not stated)	N
CCOC(=O)N1CCN(S(=O)(=O)c2ccc(Br)cc2)CC1	N
Cn1c(SCC(=O)Nc2cccc(NC(=O)c3cccs3)c2)nnc1-c1ccncc1	N
O=C(NCCc1csc(-c2ccccc2)n1)c1ccccc1F	N
COC(=O)Cc1cnc(NC(=O)CSc2nc(C(C)C)cc(=O)[nH]2)s1	N
CCOc1ccc(NC(=O)CN(C)C(=O)COc2cccc(CC)c2)cc1OCC	N
COC(=O)Nc1ccc(S(=O)(=O)N2CCN(CCN3C(=O)C4C5C=CC(C5)C4C3=O)CC2)cc1 (configuration not stated)	N

====

Attribute: GFP response vs DMSO
PROTOCOL_SUMMARY: TOR pathway LAP4-GFP level changes – S. cerevisiae, multiplex flow cytometry, MLPCN library, primary screen (AID 2023)
RUN_PARAMETERS: 3 h, at 10 µM, stronger effect = higher value, median GFP as percent of DMSO wells
In all, about 320,000 compounds went through this assay and about 1,100 (0.34%) were called active. Many of the other results were omitted from the sample, so actives are more common in it than they were.
MEASURED_METRIC: GFP response vs DMSO (%)

CC(=O)NCCC(=O)Nc1cc(S(=O)(=O)N2CCCCC2)ccc1Oc1cccc(C)c1 87.1
COc1ccc(/C=C(\C#N)c2c[nH]c3ccccc23)cc1 97.2
Cc1ccnc(NC(=O)CCNS(=O)(=O)c2ccc(C)c(C)c2)c1 81.8
Cc1ccc(C(=O)NCC(=O)NC2CC2)cc1 97.3
